The reported numbers originate from patent US20160289285A1.

Biological target: T1, human HGF (human, UniProt P14210 32-728)
T1 construct: also called hepatocyte growth factor
T1 sequence (P14210 32-728 limits assumed): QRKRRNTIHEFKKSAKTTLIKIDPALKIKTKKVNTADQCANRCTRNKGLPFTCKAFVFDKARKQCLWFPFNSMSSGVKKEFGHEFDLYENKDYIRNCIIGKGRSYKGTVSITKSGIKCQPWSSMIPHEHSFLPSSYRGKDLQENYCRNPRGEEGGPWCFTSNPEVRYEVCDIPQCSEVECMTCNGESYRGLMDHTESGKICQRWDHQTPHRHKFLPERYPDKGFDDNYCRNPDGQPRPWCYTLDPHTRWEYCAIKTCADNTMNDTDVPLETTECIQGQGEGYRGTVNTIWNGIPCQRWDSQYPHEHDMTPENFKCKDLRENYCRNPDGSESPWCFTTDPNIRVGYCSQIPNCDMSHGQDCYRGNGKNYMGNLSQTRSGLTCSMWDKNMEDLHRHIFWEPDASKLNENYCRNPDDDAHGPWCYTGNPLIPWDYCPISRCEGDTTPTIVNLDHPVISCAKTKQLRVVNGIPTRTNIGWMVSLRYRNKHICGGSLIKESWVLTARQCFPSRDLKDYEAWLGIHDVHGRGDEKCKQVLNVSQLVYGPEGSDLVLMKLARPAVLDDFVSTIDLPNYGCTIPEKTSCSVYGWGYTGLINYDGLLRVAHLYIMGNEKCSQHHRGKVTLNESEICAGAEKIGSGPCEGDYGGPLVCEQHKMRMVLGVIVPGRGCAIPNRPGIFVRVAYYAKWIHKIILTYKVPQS
Assay: SPR (ProteOn)
Experimental: SPR was measured using a ProteOn instrument (BioRad) and measurement was performed according standard procedures known to the person skilled in the art.

| binder | binding result |
| --- | --- |
| Protein #34 (designed binder) MRGSHHHHHHGSDLGKKLLEAARAGQDDEVRILMANGADVNAQDRWGDTPLHLAASAGHLKIVEVLLKYGADVNADDVFGDTPLHLAASLGHLEIVEVLLKYGADVNADDYAGNTPLHLAANTGHLEIVEVLLKYGADVNAQDKFGKTAFDISIDNGNEDLAEILQKAA | binds |
| Protein #33 (designed binder) MRGSHHHHHHGSDLGKKLLEAARAGQDDEVRILMANGADVNAQDRWGDTPLHLAASAGHLKIVEVLLKYGADVNADDVFGDTPLHLAASLGHLEIVEVLLKYGADVNADDYAGNTPLHLAANTGHLEIVEVLLKHGADVNAQDKFGKTAFDISIDNGNEDLAEILQKAA | binds |
| Protein #32 (designed binder) MRGSHHHHHHGSDLGKKLLEAARAGQDDEVRILMANGADVNAIDTWGNTPLHLAADYGHLEIVEVLLKNGADVNALDWFGDTPLHLAASLGHLEIVEVLLKNGADVNAVDTYGNTPLHLAANTGRLEIVEVLLKYGADVNAQDKFGKTAFDISIDNGNEDLAEILQKAA | binds |
